- systemName: serotonin receptor (5HT3) (Mus musculus)
- Construct: Full-length cDNAs for mosquito (Anopheles gambiae) odorant receptor; expressed in transfected cells
- Sequence (P23979 24-489): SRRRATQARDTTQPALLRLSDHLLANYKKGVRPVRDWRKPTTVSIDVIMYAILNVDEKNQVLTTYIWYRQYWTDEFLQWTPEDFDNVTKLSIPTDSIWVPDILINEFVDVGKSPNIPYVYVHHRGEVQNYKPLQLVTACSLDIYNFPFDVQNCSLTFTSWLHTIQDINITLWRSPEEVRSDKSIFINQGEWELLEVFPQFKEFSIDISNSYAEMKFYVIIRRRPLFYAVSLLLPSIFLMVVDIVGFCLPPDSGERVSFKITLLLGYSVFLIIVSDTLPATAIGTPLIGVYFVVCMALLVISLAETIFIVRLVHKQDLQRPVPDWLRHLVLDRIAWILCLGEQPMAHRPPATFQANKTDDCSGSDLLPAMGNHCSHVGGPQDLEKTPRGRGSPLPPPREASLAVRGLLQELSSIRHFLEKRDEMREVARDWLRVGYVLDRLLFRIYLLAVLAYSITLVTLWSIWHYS
- measurementNotes: Ca2+-imaging of stable Flip-In T-Rex cell line 5HT3
- Type: cell-based
- conditionsUsed: compound applied at 4 μM; read-out: Percent Inhibition 5HT3
Can you tell me inhibition at 4 µM for the items I'm about to list?

Summary for this compound, CCCCc1nc(CN2CCc3c([nH]c4ccccc34)C2c2cccc(OC)c2OC)c[nH]1 (centres unmarked) [RU-0031879] : inhibition at 4 µM is < 25%

Summary for this compound, CCN(C)c1onc(-c2ccccc2)c1CN(CCCOC)C(=O)c1ccco1 [RU-0051926] : inhibition at 4 µM is 51 to 74%

Summary for this compound, CN(C)c1ccc(C(=O)N2CCOC(COCc3ccccc3F)C2)cc1 (centres unmarked) [RU-0050325] : inhibition at 4 µM is < 25%

Summary for this compound, O=C(c1cccc(F)c1)N(Cc1c(-c2ccccc2)noc1N1CCCC1)CC1CCCO1 (centres unmarked) [RU-0037434] : inhibition at 4 µM is 26 to 50%

Summary for this compound, C=CCN(Cc1nccn1Cc1ccccc1C)C(=O)CC(C)C [RU-0058298] : inhibition at 4 µM is 26 to 50%

====

- systemName: OR10/OR7 (Anopheles gambiae, UniProt B5U0U7+Q7QCC7)
- Sequence (Q7QCC7 whole entry): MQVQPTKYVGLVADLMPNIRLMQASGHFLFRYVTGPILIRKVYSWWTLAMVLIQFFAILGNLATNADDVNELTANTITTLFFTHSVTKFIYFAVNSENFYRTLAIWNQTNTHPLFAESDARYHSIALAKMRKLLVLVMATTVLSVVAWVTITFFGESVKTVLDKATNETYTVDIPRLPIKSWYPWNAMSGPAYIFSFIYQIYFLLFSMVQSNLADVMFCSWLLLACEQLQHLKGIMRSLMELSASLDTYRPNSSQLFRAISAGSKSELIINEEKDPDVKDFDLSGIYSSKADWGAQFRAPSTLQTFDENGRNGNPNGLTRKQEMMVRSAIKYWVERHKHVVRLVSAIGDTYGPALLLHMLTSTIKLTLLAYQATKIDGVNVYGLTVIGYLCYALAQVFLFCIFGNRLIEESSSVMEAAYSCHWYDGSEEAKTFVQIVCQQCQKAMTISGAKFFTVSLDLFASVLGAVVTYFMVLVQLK
- Sequence (B5U0U7 entry or part of it): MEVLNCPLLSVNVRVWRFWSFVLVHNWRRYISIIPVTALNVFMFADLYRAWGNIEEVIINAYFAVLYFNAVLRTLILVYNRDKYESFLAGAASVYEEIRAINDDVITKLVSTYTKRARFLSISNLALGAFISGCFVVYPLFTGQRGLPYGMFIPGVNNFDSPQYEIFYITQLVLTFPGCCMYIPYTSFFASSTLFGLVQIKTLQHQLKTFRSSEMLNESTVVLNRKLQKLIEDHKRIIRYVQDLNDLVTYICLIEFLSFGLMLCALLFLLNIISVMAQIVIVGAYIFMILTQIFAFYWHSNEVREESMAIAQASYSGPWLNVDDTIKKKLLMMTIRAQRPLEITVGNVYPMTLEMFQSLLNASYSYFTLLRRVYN
- measurementNotes: Ca2+-imaging of stable HEK293T cell line OR10/OR7
- Type: cell-based
- conditionsUsed: HEK-293T; compound applied at 4 μM; read-out: Percent Inhibition OR10 OR7
testReadout: inhibition at 4 µM

Summary for this compound, `CCOC(=O)CCC(=O)N(CCc1ccccc1)CC(=O)Nc1cc(C(C)(C)C)nn1-c1ccccc1C` : inhibition at 4 µM is 26 to 50%

Summary for this compound, `COCCN(Cc1nccn1Cc1c(F)cccc1Cl)C(=O)CCc1ccccc1` : inhibition at 4 µM is 26 to 50%

Summary for this compound, O=C(c1cccc(F)c1)N(Cc1c(-c2ccccc2)noc1N1CCCC1)CC1CCCO1 (centres unmarked) : inhibition at 4 µM is 26 to 50%

Summary for this compound, `COc1ccccc1N1CCN(C(=O)c2cc3n(n2)CCN(Cc2c(F)cccc2Cl)C3=O)CC1` : inhibition at 4 µM is < 25%

Summary for this compound, COCCCN(CC(=O)N1CCc2sccc2C1COc1cccc(OC)c1)C(=O)c1ccccc1OC (centres unmarked) : inhibition at 4 µM is 51 to 74%

Summary for this compound, `Cc1ccc(CN(Cc2ccc(F)cc2)C(=O)CN(C(=O)NC(C)(C)C)C2CC2)s1` : inhibition at 4 µM is > 75%

Summary for this compound, Cc1ccccc1C(=O)N[C@@H]1CCCCC1NC(=O)C1CCN(C(=O)C23CC4CC(CC(C4)C2)C3)CC1 (some centres unmarked) : inhibition at 4 µM is < 25%

Summary for this compound, `Cc1cc(C)c(Cn2ccnc2CN(C(=O)c2ccccc2F)C(C)C)c(C)c1` : inhibition at 4 µM is > 75%

Summary for this compound, COc1ccc(N2CCN(C(=O)C3CC=CCC3C(=O)NC(c3ccccc3)c3ccccn3)CC2)cc1 (centres unmarked) : inhibition at 4 µM is < 25%

Summary for this compound, O=C(NCCC(=O)N1CCOC(COCc2ccc(F)cc2Cl)C1)OCc1ccccc1 (centres unmarked) : inhibition at 4 µM is 26 to 50%

Summary for this compound, COc1ccccc1C(=O)C1CCCN(C(=O)c2cccc(N3CCOCC3)c2)C1 (centres unmarked) : inhibition at 4 µM is 51 to 74%

Summary for this compound, CC(NC(=O)c1cc2n(n1)CCN(Cc1c(Cl)cccc1Cl)C2=O)c1ccccc1 (centres unmarked) : inhibition at 4 µM is < 25%

Summary for this compound, `COc1ccccc1CCC(=O)N1CCC(CCC(=O)Nc2ccccc2)CC1` : inhibition at 4 µM is < 25%

Summary for this compound, COc1cc(OC)cc(C2NC(=O)N(C)C3=C2C(=O)N(C2CCCCC2)C3)c1 (centres unmarked) : inhibition at 4 µM is > 75%

Summary for this compound, `COc1ccc(-c2nnc(SCc3ccc(C#N)cc3)n2-c2ccc(C)cc2)cc1` : inhibition at 4 µM is 26 to 50%

Summary for this compound, Cc1ccccc1C(=O)N[C@@H]1CCCCC1NC(=O)C1CCCN(S(=O)(=O)c2cc(Cl)ccc2Cl)C1 (some centres unmarked) : inhibition at 4 µM is 26 to 50%

Summary for this compound, `COCCCN(Cc1c(-c2ccccc2)noc1N1CCC(C)CC1)C(=O)c1ccccc1F` : inhibition at 4 µM is < 25%
